- Tested on: MS2 coat protein
- Assay Comment: apparent KD of MS2 coat protein; higher = weaker reporter binding
- Run Parameters: Eterna round: R107; input ligand: theophylline 20 uM
Records here are stratified by apparent KD of MS2 coat protein; strata: 0: < 0.02 µM; 1: ≥ 0.02 µM and < 0.04 µM; 2: ≥ 0.04 µM

Field: example entries. Status: answers known.
{"columns": ["Query Sequence", "Class Assignment"],
 "data": [
  ["UUAUAUUCUCAAUCGCCAUGUGCUUUAGAUACCAGUCUGAUAAAUGACCCUUGGCAGCUAGAGACAUGAGGAUCACCCAUGUCUU [theeternabot_exclusion_MS2_Theo_A_8]", 0],
  ["GCCGGACUUUCGGCCGCCACUGAGAGAGUCGUGUGAACAUGAGGAUCACCCAUGUAAUAUAUAUACAGGACCGGGAGGGUUGGGC [4.R]", 0],
  ["AAACUUCGCAUAGGAAAACUAUGUGAAGAUCGAGGACCGGUACGGCCGCCACUCGUCCUCAACAUGAGGAUCACCCAUGUAAUAA [Mat - Exclusion - Trytophan A - D3]", 1]
]}

[ask] Lab note: sort AAGUCAGGAGGCGAUACCAGUUACGACAUGGCCAGUUACAUGAGGAUCACCCAUGUGCGGAACCCUUGGCAGCGCUUACAUCGCU [theeternabot_exclusion_MS2_Theo_B_1] into the matching apparent KD of MS2 coat protein band.
[reply] 2

[ask] Tag the class for ACCUGUACGAAAAGUGCAGGACAUGGUAAACGAGGACCGGUACGGCCGCCACUCGAAGAAAACAAGUGGAUCACCCUUGUCCAUG [TrypAS 4 #AlternativeMS2 #Zipper #StaticStem]
[reply] 2

[ask] State the class of the sequence shown: ACAUGAGGAUCACCCAUGUACAUGAGGGAAGGAGCGGUACAUGUGCCAGGUAGGUCGCCCAACAGCAUCAGCCAUGUACAACGGA [xxbmullin]
[reply] 2

[ask] State the band of GAGCUGAUGUAGAGAUUAUAUAAAAGAGAUACCAGUACAGAAAUGUACCCUUGGCAGCUCAACUUUACAUGAGGAUCACCCAUGU [Ex Theophylline A 19]
[reply] 0

[ask] Form: Item = GCGAUGGAGCGAAGGAGCGGCUGUGACUACAUGAGGAUCACCCAUGUACGAUUGUAAGGUAGCCAGGUAGGUCGCGCUCCAUCGC [SSAB NP+V+V2 #18] ; Class = ?
[reply] 1

Attribution: the supplement of paper PMC9170038
